Origin of values: patent US20100036088A1

For each record, write down the corresponding HD50.
tested on: human erythrocytes; assay: Hemolysis assay; assay type: cell-based
Square brackets hold non-standard residues; d marks the D form. Peptide text beside a SMILES is read from it. Nspe = C[C@H](NCC(=O)O)c1ccccc1; NPentylGly = CCCCCNCC(=O)O; Nphe = O=C(O)CNCc1ccccc1; Nlys = NCCCCNCC(=O)O

COMPOUND	HD50
C[C@H](NCC(=O)N(CCCCN)CC(=O)N(CC(=O)N(CCCCN)CC(=O)N(CCCCN)CC(=O)N(CC(=O)N(CC(=O)N(CCCCN)CC(=O)N(CC(=O)N(CCCCN)CC(=O)N(CCCCN)CC(=O)N(CC(N)=O)[C@@H](C)c1ccccc1)[C@@H](C)c1ccccc1)[C@@H](C)c1ccccc1)[C@@H](C)c1ccccc1)[C@@H](C)c1ccccc1)c1ccccc1 [1B-Nlys4,10, H-(Nspe-Nlys-Nspe-Nlys-Nlys-Nspe)2-NH2] (H-[Nspe][Nlys][Nspe][Nlys][Nlys][Nspe][Nspe][Nlys][Nspe][Nlys][Nlys][Nspe]-NH2)	>200/>200 μM
C[C@@H](c1ccccc1)N(CC(N)=O)C(=O)CN(CCCCN)C(=O)CN(C(=O)CN(C(=O)CN(CCCCN)C(=O)CN(C(=O)CN(C(=O)CN(CCCCN)C(=O)CN(C(=O)CN(C(=O)CNCCCCN)[C@@H](C)c1ccccc1)[C@@H](C)c1ccccc1)[C@@H](C)c1ccccc1)[C@@H](C)c1ccccc1)[C@@H](C)c1ccccc1)[C@@H](C)c1ccccc1 [111mer, H-(Nlys-Nspe-Nspe)3-Nlys-Nspe-NH2] (H-[Nlys][Nspe][Nspe][Nlys][Nspe][Nspe][Nlys][Nspe][Nspe][Nlys][Nspe]-NH2)	> 200 µM
C[C@@H](c1ccccc1)N(CC(N)=O)C(=O)CN(Cc1ccccc1)C(=O)CN(CCCCN)C(=O)CN(C(=O)CN(Cc1ccccc1)C(=O)CN(CCCCN)C(=O)CN(C(=O)CN(Cc1ccccc1)C(=O)CN(CCCCN)C(=O)CN(C(=O)CN(Cc1ccccc1)C(=O)CNCCCCN)[C@@H](C)c1ccccc1)[C@@H](C)c1ccccc1)[C@@H](C)c1ccccc1 [1-Npm2,5,8,11, H-(Nlys-Npm-Nspe)4-NH2] (H-[Nlys][Nphe][Nspe][Nlys][Nphe][Nspe][Nlys][Nphe][Nspe][Nlys][Nphe][Nspe]-NH2)	> 200 µM

Could you report HD50 for every entry in the following list?
1. C[C@@H](c1ccccc1)N(CC(N)=O)C(=O)CN(C(=O)CN(CCCCN)C(=O)[C@@H]1CCCN1C(=O)CN(C(=O)CN(CCCCN)C(=O)CN(C(=O)CN(C(=O)CN(CCCCN)C(=O)[C@@H]1CCCN1C(=O)CN(C(=O)CNCCCCN)[C@@H](C)c1ccccc1)[C@@H](C)c1ccccc1)[C@@H](C)c1ccccc1)[C@@H](C)c1ccccc1)[C@@H](C)c1ccccc1 [1-Pro3,9, H-(Nlys-Nspe-L-Pro-Nlys-Nspe-Nspe)2-NH2] (H-[Nlys][Nspe]P[Nlys][Nspe][Nspe][Nlys][Nspe]P[Nlys][Nspe][Nspe]-NH2)
2. CCCCCNCC(=O)N(CCCCN)CC(=O)N(CC(=O)N(CC(=O)N(CCCCN)CC(=O)N(CC(=O)N(CC(N)=O)[C@@H](C)c1ccccc1)[C@@H](C)c1ccccc1)[C@@H](C)c1ccccc1)[C@@H](C)c1ccccc1 [C5-16 mer] (H-[NPentylGly][Nlys][Nspe][Nspe][Nlys][Nspe][Nspe]-NH2)

// result
[">200/>200 μM", ">200/>200 μM"]

----------
System: human erythrocytes
Assay: Hemolysis assay
Assay type: cell-based
Conditions: Table 6
Procedure: Hemolysis assays. Erythrocytes were isolated from freshly drawn, heparanized human blood and resuspended to 20 vol % in PBS (pH 7.4). In a 96-well microtiter plate, 100 μL erythrocyte suspension was added to 100 μL peptoid solution in PBS (prepared by 1:2 serial dilutions), or 100 μL PBS in the case of negative controls. […] The plate was then centrifuged at 1200 g for 15 min, 100 μL of the supernatant from each well transferred to a fresh microtiter plate, and A350 measured. […]
Square brackets hold non-standard residues; d marks the D form. Peptide text beside a SMILES is read from it. Nrpe = C[C@@H](NCC(=O)O)c1ccccc1; Nspe = C[C@H](NCC(=O)O)c1ccccc1; Nlys = NCCCCNCC(=O)O
METRIC NAME: HD10 (µM)
Answers are plain numbers, in µM.

// query For human erythrocytes, provide HD10 of C[C@H](c1ccccc1)N(CC(=O)N(CCCCN)CC(=O)N(CC(=O)N(CC(=O)N(CCCCN)CC(=O)N(CC(=O)N(CC(=O)N(CCCCN)CC(=O)N(CC(=O)N(CC(N)=O)[C@@H](C)c1ccccc1)[C@@H](C)c1ccccc1)[C@@H](C)c1ccccc1)[C@@H](C)c1ccccc1)[C@H](C)c1ccccc1)[C@H](C)c1ccccc1)C(=O)CN(C(=O)CNCCCCN)[C@H](C)c1ccccc1 [1-Nrpe2,3,5,6] (H-[Nlys][Nrpe][Nrpe][Nlys][Nrpe][Nrpe][Nlys][Nspe][Nspe][Nlys][Nspe][Nspe]-NH2) please.
// result 25

----------
tested on: Serratia marcescens ATCC 13880; assay type: cell-based; conditions: ATCC 13880
Numbered stars: 1 amine (or outer) side, 2 acyl side, 3 side chain; on linkers, the order of the positions; unused ones are H or OH. Square brackets hold non-standard residues; d marks the D form. Peptide text beside a SMILES is read from it. X1 = CC(C)[C@H](C)N(CC(=O)[*:2])[*:1]; Nspe = C[C@H](NCC(=O)O)c1ccccc1; Nlys = NCCCCNCC(=O)O
METRIC NAME: MIC S. marcescens ATCC 13880

MOLECULE	MIC S. marcescens ATCC 13880
C[C@@H](c1ccccc1)N(CC(N)=O)C(=O)CN(C(=O)CN(CCCCN)C(=O)CN(C(=O)CN(C(=O)CN(CCCCN)C(=O)[C@@H]1CCCN1C(=O)CN(C(=O)CN(CCCCN)C(=O)CN(C(=O)CN(C(=O)CNCCCCN)[C@@H](C)c1ccccc1)[C@@H](C)c1ccccc1)[C@@H](C)c1ccccc1)[C@@H](C)c1ccccc1)[C@@H](C)c1ccccc1)[C@@H](C)c1ccccc1 [1-Pro6] (H-[Nlys][Nspe][Nspe][Nlys][Nspe]P[Nlys][Nspe][Nspe][Nlys][Nspe][Nspe]-NH2)	>128 µg/mL
C[C@@H](c1ccccc1)N(CC(N)=O)C(=O)CN(C(=O)CN(CCCCN)C(=O)[C@@H]1CCCN1C(=O)CN(C(=O)CN(CCCCN)C(=O)CN(C(=O)CN(C(=O)CN(CCCCN)C(=O)CN(C(=O)CN(C(=O)CNCCCCN)[C@@H](C)c1ccccc1)[C@@H](C)c1ccccc1)[C@@H](C)c1ccccc1)[C@@H](C)c1ccccc1)[C@@H](C)c1ccccc1)[C@@H](C)c1ccccc1 [1-Pro9] (H-[Nlys][Nspe][Nspe][Nlys][Nspe][Nspe][Nlys][Nspe]P[Nlys][Nspe][Nspe]-NH2)	>128 µg/mL

Okay, next one:
// query Return reported MIC S. marcescens ATCC 13880; argument: CC(C)[C@H](C)N(CC(=O)N(CC(=O)N(CCCCN)CC(=O)N(CC(=O)N(CC(=O)N(CCCCN)CC(=O)N(CC(=O)N(CC(=O)N(CCCCN)CC(=O)N(CC(=O)N(CC(N)=O)[C@@H](C)c1ccccc1)[C@@H](C)C(C)C)[C@@H](C)c1ccccc1)[C@@H](C)C(C)C)[C@@H](C)c1ccccc1)[C@@H](C)C(C)C)[C@@H](C)c1ccccc1)C(=O)CNCCCCN [1-Nsdp2,5,8,11, H-(Nlys-Nsdp-Nspe)4-NH2] (H-[Nlys][X1][Nspe][Nlys][X1][Nspe][Nlys][X1][Nspe][Nlys][X1][Nspe]-NH2)
// result >128 µg/mL

----------
test system: Staphylococcus aureus VAN2; format: cell-based; conditions: VAN2
Numbered stars: 1 amine (or outer) side, 2 acyl side, 3 side chain; on linkers, the order of the positions; unused ones are H or OH. Square brackets hold non-standard residues; d marks the D form. Peptide text beside a SMILES is read from it. X1 = CC(C)[C@H](C)N(CC(=O)[*:2])[*:1]; Nspe = C[C@H](NCC(=O)O)c1ccccc1; Nphe = O=C(O)CNCc1ccccc1; Nlys = NCCCCNCC(=O)O
Can you tell me MIC Staphylococcus aureus VAN2 for the items I'm about to list?
One number for each entry, in µM.

Past entries and their recorded results:
COMPOUND	MIC Staphylococcus aureus VAN2 [µM]
NCCCCNCC(=O)N(CC(=O)N(CC(=O)N(CCCCN)CC(=O)N(CC(=O)N(CC(=O)N(CCCCN)CC(=O)N(CC(=O)N(CC(=O)N(CCCCN)CC(=O)N(CC(=O)N(CC(N)=O)Cc1ccccc1)Cc1ccccc1)Cc1ccccc1)Cc1ccccc1)Cc1ccccc1)Cc1ccccc1)Cc1ccccc1)Cc1ccccc1 [1achiral, H-(Nlys-Npm-Npm)4-NH2] (H-[Nlys][Nphe][Nphe][Nlys][Nphe][Nphe][Nlys][Nphe][Nphe][Nlys][Nphe][Nphe]-NH2)	4.7
C[C@@H](c1ccccc1)N(CC(N)=O)C(=O)CN(Cc1ccccc1)C(=O)CN(CCCCN)C(=O)CN(C(=O)CN(Cc1ccccc1)C(=O)CN(CCCCN)C(=O)CN(C(=O)CN(Cc1ccccc1)C(=O)CN(CCCCN)C(=O)CN(C(=O)CN(Cc1ccccc1)C(=O)CNCCCCN)[C@@H](C)c1ccccc1)[C@@H](C)c1ccccc1)[C@@H](C)c1ccccc1 [1-Npm2,5,8,11, H-(Nlys-Npm-Nspe)4-NH2] (H-[Nlys][Nphe][Nspe][Nlys][Nphe][Nspe][Nlys][Nphe][Nspe][Nlys][Nphe][Nspe]-NH2)	4.5
CC(C)[C@H](C)N(CC(=O)N(CC(=O)N(CCCCN)CC(=O)N(CC(=O)N(CC(=O)N(CCCCN)CC(=O)N(CC(=O)N(CC(=O)N(CCCCN)CC(=O)N(CC(=O)N(CC(N)=O)[C@@H](C)c1ccccc1)[C@@H](C)C(C)C)[C@@H](C)c1ccccc1)[C@@H](C)C(C)C)[C@@H](C)c1ccccc1)[C@@H](C)C(C)C)[C@@H](C)c1ccccc1)C(=O)CNCCCCN [1-Nsdp2,5,8,11, H-(Nlys-Nsdp-Nspe)4-NH2] (H-[Nlys][X1][Nspe][Nlys][X1][Nspe][Nlys][X1][Nspe][Nlys][X1][Nspe]-NH2)	4.8

We now examine a further compound.
// query Would you kindly share the measured MIC Staphylococcus aureus VAN2 for C[C@@H](c1ccccc1)N(CC(N)=O)C(=O)CN(C(=O)CN(CCCCN)C(=O)[C@@H]1CCCN1C(=O)CN(C(=O)CN(CCCCN)C(=O)CN(C(=O)CN(C(=O)CN(CCCCN)C(=O)CN(C(=O)CN(C(=O)CNCCCCN)[C@@H](C)c1ccccc1)[C@@H](C)c1ccccc1)[C@@H](C)c1ccccc1)[C@@H](C)c1ccccc1)[C@@H](C)c1ccccc1)[C@@H](C)c1ccccc1 [1-Pro9] (H-[Nlys][Nspe][Nspe][Nlys][Nspe][Nspe][Nlys][Nspe]P[Nlys][Nspe][Nspe]-NH2) ?
// result 4.6
